Reference source for all entries: patent US20260103465A1

- Tested on: MDR1-MDCK cell monolayers
- TEST: MDR1/MDCK permeability assay
- Format: in vitro ADME
- STUDY_CONDITIONS: B to A; Table 4
READOUT_TYPE: MDCK Permeability (MDR1-MDCK); Mean; Papp(B-A) (10^−6 cm/s)

Ask: What value of MDCK Permeability (MDR1-MDCK); Mean; Papp(B-A) (10^−6 cm/s) has been recorded for this entry: CCC1(c2ccccc2)C2=C(CC(C)(C)CC2=O)Nc2ncc(F)cc21 (single isomer, unassigned) [Compound 114B]
Result: 24 10^−6 cm/s

Ask: How about this compound: CCC1(c2cccc(-c3cncn3C(C)C)c2)C2=C(CC(C)(C)CC2=O)Nc2ncc(F)cc21 (single isomer, unassigned) [Compound 1038A]
Result: 41 10^−6 cm/s

Ask: Same for CCC1(c2ccccc2)C2=C(CC(C)(C)NC2=O)Nc2ncc(F)cc21 (single isomer, unassigned) [Compound 1007B]
Result: 45 10^−6 cm/s
